- target of assay: ICE (Homo sapiens)
- Sequence (P29466 120-297 limits assumed): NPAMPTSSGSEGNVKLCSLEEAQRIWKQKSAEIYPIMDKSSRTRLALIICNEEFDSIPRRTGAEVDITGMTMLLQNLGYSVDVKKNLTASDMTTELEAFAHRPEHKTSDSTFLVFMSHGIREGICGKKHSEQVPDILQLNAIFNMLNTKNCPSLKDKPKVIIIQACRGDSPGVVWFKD
- Sequence (P29466 317-404 limits assumed): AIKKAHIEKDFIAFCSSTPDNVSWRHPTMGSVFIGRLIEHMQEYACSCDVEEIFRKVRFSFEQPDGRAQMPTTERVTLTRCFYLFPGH
- run description: Enzyme assay with UV-visible substrate (visible ICE assay, Succinyl-Tyr-Val-Ala-Asp-pNitroanilide)
- Format: biochemical
- condition set: Table 5
metric: log10 of Ki (log10 of the value in nM)
Short version: log10 scale, Ki, nM.

// below: answered molecules
{"molecule": "Cc1cccc(CC(=O)N2C[C@H](NC(=O)c3ccccc3)C(=O)N(CC(=O)N[C@H](C=O)CC(=O)O)c3ccccc32)c1 [Compound 605t]", "log10 of Ki": 1.52}
{"molecule": "O=C1C[C@H](NC(=O)[C@@H]2CCCN3C(=O)CC[C@H](NC(=O)c4ccccc4)C(=O)N23)C(OCc2ccccc2)O1 (stereo partly shown) [Compound 213e]", "log10 of Ki": 2.11}
{"molecule": "Cc1ccccc1C(=O)N[C@H]1CCC(=O)N2CCC[C@@H](C(=O)N[C@H](C=O)CC(=O)O)N2C1=O [Compound 404]", "log10 of Ki": 0.46}
{"molecule": "O=C[C@H](CC(=O)O)NC(=O)[C@@H]1CCCN2C(=O)CC[C@H](NC(=O)c3cccc(F)c3)C(=O)N12 [Compound 462]", "log10 of Ki": 1.60}
{"molecule": "CC(C)(C)OC(=O)C[C@@H](C=NOCc1c(Cl)cccc1Cl)NC(=O)[C@@H]1CCCN2C(=O)CC[C@H](NC(=O)c3ccccc3)C(=O)N12 [Compound 307a]", "log10 of Ki": 1.74}
{"molecule": "COc1cc(C(=O)N[C@H]2CCC(=O)N3CCC[C@@H](C(=O)N[C@H](C=O)CC(=O)O)N3C2=O)nc2ccccc12 [Compound 437]", "log10 of Ki": 1.08}
{"molecule": "Cc1ccc(Cl)cc1C(=O)N[C@H]1CCC(=O)N2CCC[C@@H](C(=O)N[C@H](C=O)CC(=O)O)N2C1=O [Compound 466]", "log10 of Ki": -0.10}
{"molecule": "CS(=O)(=O)N1C[C@H](NC(=O)c2ccccc2)C(=O)N(CC(=O)N[C@H](C=O)CC(=O)O)c2ccccc21 [Compound 605m]", "log10 of Ki": 2.81}
{"molecule": "O=C[C@H](CC(=O)O)NC(=O)[C@@H]1CCCN2C(=O)CC[C@H](NC(=O)c3ccc(OC(=O)c4ccc(O)cc4)cc3)C(=O)N12 [Compound 457]", "log10 of Ki": 0.79}
{"molecule": "CC(=O)N1C[C@H](NS(=O)(=O)Cc2ccccc2)C(=O)N(CC(=O)N[C@H](C=O)CC(=O)O)c2ccccc21 [Compound 631]", "log10 of Ki": 2.91}

Endpoint output: log10 of Ki of O=C1C[C@H](NC(=O)[C@@H]2CCCN3C(=O)CC[C@H](NC(=O)C(=O)c4ccccc4)C(=O)N23)C(OCc2ccccc2)O1 (stereo partly shown) [Compound 2001] . Value?
2.13

Endpoint output: log10 of Ki of CN(C)c1ccc(C(=O)N[C@H]2CCC(=O)N3CCC[C@@H](C(=O)N[C@H](C=O)CC(=O)O)N3C2=O)cc1 [Compound 471] . Value?
0.00

Endpoint output: log10 of Ki of CC(=O)Nc1ccc(C(=O)N[C@H]2CCC(=O)N3CCC[C@@H](C(=O)N[C@H](C=O)CC(=O)O)N3C2=O)cc1NC(C)=O [Compound 480] . Value?
1.40
